Entries annotated with measured IC50
Biological target: c-Met (Homo sapiens, UniProt P08581)
Construct: Kinases are expressed as either kinase domains or full length constructs; made in house
Sequence (P08581 25-1390): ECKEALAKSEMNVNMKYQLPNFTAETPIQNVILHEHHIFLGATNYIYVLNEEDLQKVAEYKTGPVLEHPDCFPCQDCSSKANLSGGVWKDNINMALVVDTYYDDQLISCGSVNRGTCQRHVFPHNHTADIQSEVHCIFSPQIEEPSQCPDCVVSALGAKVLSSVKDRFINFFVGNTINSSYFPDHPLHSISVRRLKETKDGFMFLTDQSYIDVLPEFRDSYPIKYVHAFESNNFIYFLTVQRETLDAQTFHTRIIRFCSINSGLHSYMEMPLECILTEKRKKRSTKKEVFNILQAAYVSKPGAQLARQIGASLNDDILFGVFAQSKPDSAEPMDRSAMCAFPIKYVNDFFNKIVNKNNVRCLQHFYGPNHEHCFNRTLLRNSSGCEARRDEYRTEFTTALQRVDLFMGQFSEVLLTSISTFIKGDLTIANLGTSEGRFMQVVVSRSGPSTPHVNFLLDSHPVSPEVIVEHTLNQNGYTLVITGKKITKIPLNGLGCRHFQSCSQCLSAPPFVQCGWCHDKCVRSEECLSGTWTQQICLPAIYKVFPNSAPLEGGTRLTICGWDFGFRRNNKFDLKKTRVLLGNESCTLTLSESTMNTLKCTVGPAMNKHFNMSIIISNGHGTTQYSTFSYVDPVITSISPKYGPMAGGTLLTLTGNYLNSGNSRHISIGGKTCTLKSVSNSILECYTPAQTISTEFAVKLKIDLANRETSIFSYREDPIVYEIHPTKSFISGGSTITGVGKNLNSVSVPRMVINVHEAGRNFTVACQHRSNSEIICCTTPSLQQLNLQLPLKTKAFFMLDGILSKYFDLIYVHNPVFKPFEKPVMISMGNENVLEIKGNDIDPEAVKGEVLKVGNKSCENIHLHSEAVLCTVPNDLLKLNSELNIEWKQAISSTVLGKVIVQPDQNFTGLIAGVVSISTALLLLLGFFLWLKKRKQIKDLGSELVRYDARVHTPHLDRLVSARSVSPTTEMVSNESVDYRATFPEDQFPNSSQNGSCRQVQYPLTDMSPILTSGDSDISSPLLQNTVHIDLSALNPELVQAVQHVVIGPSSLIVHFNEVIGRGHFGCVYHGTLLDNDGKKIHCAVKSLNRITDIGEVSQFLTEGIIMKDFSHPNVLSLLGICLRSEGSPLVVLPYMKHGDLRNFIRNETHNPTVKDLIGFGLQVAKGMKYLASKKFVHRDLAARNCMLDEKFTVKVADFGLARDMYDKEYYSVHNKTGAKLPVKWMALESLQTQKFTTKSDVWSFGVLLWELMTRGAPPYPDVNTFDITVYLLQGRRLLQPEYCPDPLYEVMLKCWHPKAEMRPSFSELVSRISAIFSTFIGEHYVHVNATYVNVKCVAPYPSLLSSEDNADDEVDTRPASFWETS
Test: Kinase inhibition assay (33P transfer), c-Met
Assay type: biochemical
Settings: Table 2, class symbols A-E; read-out: Met-1

Some entries whose results are on file:
{"compound": "Cc1ccc(-c2cc(Nc3ncnc(Nc4cc(C)ccc4C)n3)[nH]n2)cc1", "endpoint": "IC50", "val": "1.08 to 6.46 µM"}
{"compound": "COC(=O)c1cccc(Nc2ncnc(-n3c(Cl)nc4ccccc43)n2)c1", "endpoint": "IC50", "val": "6.3 to 9.19 µM"}
{"compound": "COc1ccc(Nc2ncnc(N(C)[C@H](C)c3ccccc3)n2)cc1OC", "endpoint": "IC50", "val": "> 12.3 µM"}
{"compound": "CCN(c1ncnc(Nc2cc(OC)c(OC)c(OC)c2)n1)c1cccc2ccccc12", "endpoint": "IC50", "val": "5.56 to 8.11 µM"}
{"compound": "O=C(O)Cc1cccc(Nc2ncnc(-c3cccnc3Nc3ccccc3)n2)c1", "endpoint": "IC50", "val": "1 to 6.02 µM"}

Report measured IC50; entry is COC(=O)c1ccc(-c2cc(Nc3ncnc(Nc4cccc(CCC(=O)O)c4)n3)[nH]n2)cc1
< 0.871 µM

Report measured IC50; entry is COc1ccc(Nc2ncnc(N(C)C3CCN(Cc4ccccc4)C3)n2)cc1OC (centres unmarked)
> 10.7 µM

Report measured IC50; entry is COc1cc(Nc2ncnc(-c3cccnc3Nc3cccc(C#N)c3)n2)cc(OC)c1OC
> 9.88 µM

Report measured IC50; entry is COc1cc(Nc2ncnc(-c3cccnc3NC3CCCCC3)n2)cc(OC)c1OC
> 10.3 µM

Report measured IC50; entry is c1ccc(Cn2ncc3cc(Nc4ncnc(Nc5ccc6ncsc6c5)n4)ccc32)cc1
< 0.888 µM

Report measured IC50; entry is Fc1ccc(CNc2ncccc2-c2ncnc(Nc3ccc4[nH]ncc4c3)n2)cc1
> 10.9 µM

Report measured IC50; entry is COc1cc(Nc2ncnc(N3CCCc4cc(Cl)ccc43)n2)cc(OC)c1OC
< 0.935 µM

Report measured IC50; entry is C=CCN(c1cccc(Cl)c1)c1ncnc(Nc2cc(OC)cc(OC)c2)n1
1.01 to 6.03 µM

Report measured IC50; entry is COC(=O)c1ccc(-c2cc(Nc3ncnc(NCCNC(C)=O)n3)[nH]n2)cc1
> 11.4 µM

Source: patent US7074789B2
